Test: Mean serum concentrations in neonatal piglets after intramuscular or oral administration
Type: in vivo
Settings: pig, po, 50 mg/kg, 3h
observable: concentration at 3 h (ng/mL)
Quick note: give the figure in ng/mL, leave out the unit.

Using known records, supply concentration at 3 h for C/C(=C\C(=O)OCCCCCCS(N)(=O)=O)CC1OCC(CC2OC2C(C)C(C)O)C(O)C1O (stereo not shown) [Example 2, 6-Sulphamoylhexyl monate A]
1500

###

Test system: Bacillus subtilis 6633
Test: MIC human bacteria (Table 1), serial dilution in nutrient agar
Format: cell-based
Details: nutrient agar with 5% chocolated horse blood
observable: MIC (µg/mL)
Quick note: give the figure in µg/mL, leave out the unit.

molecule: C/C(=C\C(=O)OCCCCCCS(N)(=O)=O)CC1OCC(CC2OC2C(C)C(C)O)C(O)C1O (centres unmarked) [Example 2, 6-Sulphamoylhexyl monate A]
assayedSystem: Bacillus subtilis 6633
observable: MIC
recordedValue: 0.5

molecule: C/C(=C\C(=O)OCCCS(=O)(=O)N(C)C)CC1OCC(CC2OC2C(C)C(C)O)C(O)C1O (centres unmarked) [Example 4, 3-N,N-Dimethylsulphamoylpropyl monate A]
assayedSystem: Bacillus subtilis 6633
observable: MIC
recordedValue: 2.5

molecule: C/C(=C\C(=O)OC(C)CCCCCS(N)(=O)=O)CC1OCC(CC2OC2C(C)C(C)O)C(O)C1O (centres unmarked) [Example 5, 7-Sulphamoylhept-2-yl monate A]
assayedSystem: Bacillus subtilis 6633
observable: MIC
recordedValue: 2.5

molecule: C/C(=C\C(=O)OCCCCCCCCS(N)(=O)=O)CC1OCC(CC2OC2C(C)C(C)O)C(O)C1O (centres unmarked) [Example 3, 8-Sulphamoyloctyl monate A]
assayedSystem: Bacillus subtilis 6633
observable: MIC
recordedValue: 0.2

Now for another entry.
Using known records, supply MIC for C/C(=C\C(=O)OCCCS(N)(=O)=O)CC1OCC(CC2OC2C(C)C(C)O)C(O)C1O (centres unmarked) [Example 1, 3-Sulphamoylpropyl monate A]
10

###

System: Strep pyogenes A 64/848
Assay: MIC human bacteria (Table 1), serial dilution in nutrient agar
Type: cell-based
Settings: nutrient agar with 5% chocolated horse blood
observable: MIC (µg/mL)
Quick note: give the figure in µg/mL, leave out the unit.

Examples from the recorded data:
compound: C/C(=C\C(=O)OCCCS(N)(=O)=O)CC1OCC(CC2OC2C(C)C(C)O)C(O)C1O (centres unmarked) [Example 1, 3-Sulphamoylpropyl monate A]
observable: MIC
recordedValue: 0.5

compound: C/C(=C\C(=O)OCCCCCCCCS(N)(=O)=O)CC1OCC(CC2OC2C(C)C(C)O)C(O)C1O (centres unmarked) [Example 3, 8-Sulphamoyloctyl monate A]
observable: MIC
recordedValue: 0.5

compound: C/C(=C\C(=O)OCCCCCCS(N)(=O)=O)CC1OCC(CC2OC2C(C)C(C)O)C(O)C1O (centres unmarked) [Example 2, 6-Sulphamoylhexyl monate A]
observable: MIC
recordedValue: 0.5

compound: C/C(=C\C(=O)OCCCS(=O)(=O)N(C)C)CC1OCC(CC2OC2C(C)C(C)O)C(O)C1O (centres unmarked) [Example 4, 3-N,N-Dimethylsulphamoylpropyl monate A]
observable: MIC
recordedValue: 2.5

Now for another entry.
Using known records, supply MIC for C/C(=C\C(=O)OC(C)CCCCCS(N)(=O)=O)CC1OCC(CC2OC2C(C)C(C)O)C(O)C1O (centres unmarked) [Example 5, 7-Sulphamoylhept-2-yl monate A]
2.5

###

Tested on: Strep pneumoniae CN33
Test: MIC human bacteria (Table 1), serial dilution in nutrient agar
Type: cell-based
Conditions: nutrient agar with 5% chocolated horse blood
observable: MIC
Provide a numeric answer, followed by its unit.

Examples from the recorded data:
compound: C/C(=C\C(=O)OCCCCCCS(N)(=O)=O)CC1OCC(CC2OC2C(C)C(C)O)C(O)C1O (stereo not shown) [Example 2, 6-Sulphamoylhexyl monate A]
MIC: 0.2 µg/mL
--
compound: C/C(=C\C(=O)OCCCCCCCCS(N)(=O)=O)CC1OCC(CC2OC2C(C)C(C)O)C(O)C1O (stereo not shown) [Example 3, 8-Sulphamoyloctyl monate A]
MIC: 0.5 µg/mL
--
compound: C/C(=C\C(=O)OCCCS(=O)(=O)N(C)C)CC1OCC(CC2OC2C(C)C(C)O)C(O)C1O (stereo not shown) [Example 4, 3-N,N-Dimethylsulphamoylpropyl monate A]
MIC: 1 µg/mL

Using known records, supply MIC for C/C(=C\C(=O)OC(C)CCCCCS(N)(=O)=O)CC1OCC(CC2OC2C(C)C(C)O)C(O)C1O (stereo not shown) [Example 5, 7-Sulphamoylhept-2-yl monate A]
1 µg/mL

###

Assay: Mean serum concentrations in neonatal piglets after intramuscular or oral administration
Type: in vivo
Details: pig, po, 50 mg/kg, 20 minutes
observable: concentration at 20 min

Using known records, supply concentration at 20 min for C/C(=C\C(=O)OCCCCCCS(N)(=O)=O)CC1OCC(CC2OC2C(C)C(C)O)C(O)C1O (stereo not shown) [Example 2, 6-Sulphamoylhexyl monate A]
8300 ng/mL

###

Assay: Mean serum concentrations in neonatal piglets after intramuscular or oral administration
Assay type: in vivo
Settings: pig, im, 50 mg/kg, 1h
observable: concentration at 1 h (ng/mL)
Quick note: give the figure in ng/mL, leave out the unit.

Using known records, supply concentration at 1 h for C/C(=C\C(=O)OCCCCCCS(N)(=O)=O)CC1OCC(CC2OC2C(C)C(C)O)C(O)C1O (stereo not shown) [Example 2, 6-Sulphamoylhexyl monate A]
17300

###

Test: Mean serum concentrations in neonatal piglets after intramuscular or oral administration
Type: in vivo
Settings: pig, im, 50 mg/kg, 2h
observable: concentration at 2 h (ng/mL)
Quick note: give the figure in ng/mL, leave out the unit.

Using known records, supply concentration at 2 h for C/C(=C\C(=O)OCCCCCCS(N)(=O)=O)CC1OCC(CC2OC2C(C)C(C)O)C(O)C1O (stereo not shown) [Example 2, 6-Sulphamoylhexyl monate A]
9200

###

Assay: Mean serum concentrations in neonatal piglets after intramuscular or oral administration
Assay type: in vivo
Details: pig, po, 50 mg/kg, 40 minutes
observable: concentration at 40 min
Provide a numeric answer, followed by its unit.

Using known records, supply concentration at 40 min for C/C(=C\C(=O)OCCCCCCS(N)(=O)=O)CC1OCC(CC2OC2C(C)C(C)O)C(O)C1O (stereo not shown) [Example 2, 6-Sulphamoylhexyl monate A]
8600 ng/mL

###

Assay: Mean serum concentrations in neonatal piglets after intramuscular or oral administration
Assay type: in vivo
Settings: pig, po, 50 mg/kg, 4h
observable: concentration at 4 h (ng/mL)
Quick note: give the figure in ng/mL, leave out the unit.

Using known records, supply concentration at 4 h for C/C(=C\C(=O)OCCCCCCS(N)(=O)=O)CC1OCC(CC2OC2C(C)C(C)O)C(O)C1O (stereo not shown) [Example 2, 6-Sulphamoylhexyl monate A]
740

###

Assay: Mean serum concentrations in neonatal piglets after intramuscular or oral administration
Format: in vivo
Conditions: pig, po, 50 mg/kg, 5h
observable: concentration at 5 h

Using known records, supply concentration at 5 h for C/C(=C\C(=O)OCCCCCCS(N)(=O)=O)CC1OCC(CC2OC2C(C)C(C)O)C(O)C1O (stereo not shown) [Example 2, 6-Sulphamoylhexyl monate A]
< 510 ng/mL

###

Experiment: Mean serum concentrations in neonatal piglets after intramuscular or oral administration
Type: in vivo
Conditions: pig, im, 50 mg/kg, 3h
observable: concentration at 3 h (ng/mL)
Quick note: give the figure in ng/mL, leave out the unit.

Using known records, supply concentration at 3 h for C/C(=C\C(=O)OCCCCCCS(N)(=O)=O)CC1OCC(CC2OC2C(C)C(C)O)C(O)C1O (stereo not shown) [Example 2, 6-Sulphamoylhexyl monate A]
3200

###

Test: Mean serum concentrations in neonatal piglets after intramuscular or oral administration
Assay type: in vivo
Settings: pig, po, 50 mg/kg, 1h
observable: concentration at 1 h (ng/mL)
Quick note: give the figure in ng/mL, leave out the unit.

Using known records, supply concentration at 1 h for C/C(=C\C(=O)OCCCCCCS(N)(=O)=O)CC1OCC(CC2OC2C(C)C(C)O)C(O)C1O (stereo not shown) [Example 2, 6-Sulphamoylhexyl monate A]
5900

###

Assay: Mean serum concentrations in neonatal piglets after intramuscular or oral administration
Type: in vivo
Conditions: pig, im, 50 mg/kg, 5h
observable: concentration at 5 h

Using known records, supply concentration at 5 h for C/C(=C\C(=O)OCCCCCCS(N)(=O)=O)CC1OCC(CC2OC2C(C)C(C)O)C(O)C1O (stereo not shown) [Example 2, 6-Sulphamoylhexyl monate A]
< 600 ng/mL
